Target chain: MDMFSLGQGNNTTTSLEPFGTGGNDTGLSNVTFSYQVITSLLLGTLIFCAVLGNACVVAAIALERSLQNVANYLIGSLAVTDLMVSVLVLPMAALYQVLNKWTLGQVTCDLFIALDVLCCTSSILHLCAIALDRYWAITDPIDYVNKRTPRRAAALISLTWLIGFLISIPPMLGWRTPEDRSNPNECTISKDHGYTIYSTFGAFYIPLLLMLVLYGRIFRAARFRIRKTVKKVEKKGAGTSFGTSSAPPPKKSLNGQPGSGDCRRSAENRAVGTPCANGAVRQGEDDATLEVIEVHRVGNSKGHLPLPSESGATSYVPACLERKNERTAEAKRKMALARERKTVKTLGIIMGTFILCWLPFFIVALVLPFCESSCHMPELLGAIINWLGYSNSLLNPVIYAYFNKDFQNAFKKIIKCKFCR
assay readout: IC50 (nM)
Give bare numbers, in nM.

Prompt line: Please look up its IC50: CC(C(O)c1ccc(O)cc1)N1CCC(Cc2ccccc2)CC1 (stereo unspecified) [IFENPRODIL]
Response line: 238
